Data credit: the supplement of paper PMC11414989

Parameter: mean angular velocity of exposed larvae. Scope: all listed entries.
# Test system: Danio rerio larvae (Tropical 5D)
# assay_explanation: mean angular velocity of exposed larvae, light phase (angular velocity (unit not stated)); higher = more movement
# condition_description: 0.41 µM, exposure window: 6 hpf to 120 hpf, static, assay age: 120 hpf (5 dpf)
Please reply with the value in numeric form only.

Solved cases (3 shown):
C[Si](C)(C)C(F)(F)C(F)(F)C(F)(F)F [(Heptafluoropropyl)trimethylsilane] = 0.0607
NC(O)(C(F)(F)F)C(F)(F)F [2-Aminohexafluoropropan-2-ol] = 0.0293
NC(=O)C(F)(F)C(F)(F)C(F)(F)C(F)(F)F [Nonafluoropentanamide] = 0.0614

Now for another entry.
query: Please report mean angular velocity of exposed larvae for the following molecule: O=S(=O)(O)C(F)(F)C(F)(F)C(F)(F)C(F)(F)C(F)(F)C(F)(F)F [Perfluorohexanesulfonic acid]
result: 0.123

* * *

# System: Danio rerio larvae (Tropical 5D)
# assay_explanation: mean distance moved of exposed larvae, dark phase (µm per frame (1/25 s)); higher = more movement
# condition_description: 33.3 µM, exposure window: 6 hpf to 120 hpf, static, assay age: 120 hpf (5 dpf)
metric_name: mean distance moved of exposed larvae
Please reply with the value in numeric form only.

query: Please report mean distance moved of exposed larvae for the following molecule: NC(O)(C(F)(F)F)C(F)(F)F
result: 18.3

query: Please report mean distance moved of exposed larvae for the following molecule: NC(=O)C(F)(F)C(F)(F)C(F)(F)C(F)(F)F [Nonafluoropentanamide]
result: 26.5

query: Please report mean distance moved of exposed larvae for the following molecule: O=S(=O)(O)C(F)(F)C(F)(F)C(F)(F)C(F)(F)C(F)(F)C(F)(F)F
result: 8.39

query: Please report mean distance moved of exposed larvae for the following molecule: C[Si](C)(C)C(F)(F)C(F)(F)C(F)(F)F
result: 15.3

* * *

# System: Danio rerio larvae (Tropical 5D)
# assay_explanation: mean distance moved of exposed larvae, light phase (µm per frame (1/25 s)); higher = more movement
# condition_description: 11.1 µM, exposure window: 6 hpf to 120 hpf, static, assay age: 120 hpf (5 dpf)
metric_name: mean distance moved of exposed larvae
Please reply with the value in numeric form only.

NC(=O)C(F)(F)C(F)(F)C(F)(F)C(F)(F)F [Nonafluoropentanamide] = 3.86
O=S(=O)(O)C(F)(F)C(F)(F)C(F)(F)C(F)(F)C(F)(F)C(F)(F)F [Perfluorohexanesulfonic acid] = 4.59
NC(O)(C(F)(F)F)C(F)(F)F [2-Aminohexafluoropropan-2-ol] = 0.717

Now for another entry.
query: Please report mean distance moved of exposed larvae for the following compound: C[Si](C)(C)C(F)(F)C(F)(F)C(F)(F)F [(Heptafluoropropyl)trimethylsilane]
result: 2.09

* * *

# System: Danio rerio larvae (Tropical 5D)
# assay_explanation: mean distance moved of exposed larvae, light phase (µm per frame (1/25 s)); higher = more movement
# condition_description: 1 µM, exposure window: 6 hpf to 120 hpf, static, assay age: 120 hpf (5 dpf)
Parameter: mean distance moved of exposed larvae. Scope: all listed entries.
Please reply with the value in numeric form only.

Solved cases (3 shown):
CN1C(=O)CN=C(c2ccccc2)c2cc(Cl)ccc21 [Diazepam] = 10.9
Cc1cccc2c1ccc1ccccc12 [1-Methylphenanthrene] = 5.24
Cc1ccc2c(ccc3ccccc32)c1 [2-Methylphenanthrene] = 2.38

Now for another entry.
query: Please report mean distance moved of exposed larvae for the following compound: c1ccc2c(c1)c1cccc3c4ccccc4c4cccc2c4c13 [Dibenzo[e-l]pyrene]
result: 4.47

* * *

# Tested on: Danio rerio larvae (Tropical 5D)
# assay_explanation: mean angular velocity of exposed larvae, dark phase (angular velocity (unit not stated)); higher = more movement
# condition_description: 66.5 µM, exposure window: 6 hpf to 120 hpf, static, assay age: 120 hpf (5 dpf)
Parameter: mean angular velocity of exposed larvae. Scope: all listed entries.
Please reply with the value in numeric form only.

Solved cases (3 shown):
NC(O)(C(F)(F)F)C(F)(F)F = 0.491
C[Si](C)(C)C(F)(F)C(F)(F)C(F)(F)F = 0.949
NC(=O)C(F)(F)C(F)(F)C(F)(F)C(F)(F)F [Nonafluoropentanamide] = 0.804

Now for another entry.
query: Please report mean angular velocity of exposed larvae for the following compound: O=S(=O)(O)C(F)(F)C(F)(F)C(F)(F)C(F)(F)C(F)(F)C(F)(F)F
result: 0.271

* * *

# System: Danio rerio larvae (Tropical 5D)
# assay_explanation: mean distance moved of exposed larvae, dark phase (µm per frame (1/25 s)); higher = more movement
# condition_description: 11.1 µM, exposure window: 6 hpf to 120 hpf, static, assay age: 120 hpf (5 dpf)
metric_name: mean distance moved of exposed larvae
Please reply with the value in numeric form only.

NC(=O)C(F)(F)C(F)(F)C(F)(F)C(F)(F)F [Nonafluoropentanamide] = 23.9

query: Please report mean distance moved of exposed larvae for the following compound: C[Si](C)(C)C(F)(F)C(F)(F)C(F)(F)F
result: 18.6

query: Please report mean distance moved of exposed larvae for the following compound: O=S(=O)(O)C(F)(F)C(F)(F)C(F)(F)C(F)(F)C(F)(F)C(F)(F)F
result: 25.2

query: Please report mean distance moved of exposed larvae for the following compound: NC(O)(C(F)(F)F)C(F)(F)F
result: 11.2

* * *

# Test system: Danio rerio larvae (Tropical 5D)
# assay_explanation: mean angular velocity of exposed larvae, light phase (angular velocity (unit not stated)); higher = more movement
# condition_description: 100 µM, exposure window: 6 hpf to 120 hpf, static, assay age: 120 hpf (5 dpf)
metric_name: mean angular velocity of exposed larvae
Please reply with the value in numeric form only.

Solved cases (5 shown):
NC(O)(C(F)(F)F)C(F)(F)F [2-Aminohexafluoropropan-2-ol] = 0.0458
Cc1ccc2c(ccc3ccccc32)c1 [2-Methylphenanthrene] = 0.0583
C[Si](C)(C)C(F)(F)C(F)(F)C(F)(F)F [(Heptafluoropropyl)trimethylsilane] = 0.0731
NC(=O)C(F)(F)C(F)(F)C(F)(F)C(F)(F)F [Nonafluoropentanamide] = 0.107
O=S(=O)(O)C(F)(F)C(F)(F)C(F)(F)C(F)(F)C(F)(F)C(F)(F)F [Perfluorohexanesulfonic acid] = 0.114

query: Please report mean angular velocity of exposed larvae for the following compound: Cc1cccc2c1ccc1ccccc12 [1-Methylphenanthrene]
result: 0.143

query: Please report mean angular velocity of exposed larvae for the following compound: c1ccc2c(c1)c1cccc3c4ccccc4c4cccc2c4c13 [Dibenzo[e-l]pyrene]
result: 0.0996

* * *

# Test system: Danio rerio larvae (Tropical 5D)
# assay_explanation: mean distance moved of exposed larvae, dark phase (µm per frame (1/25 s)); higher = more movement
# condition_description: 100 µM, exposure window: 6 hpf to 120 hpf, static, assay age: 120 hpf (5 dpf)
Parameter: mean distance moved of exposed larvae. Scope: all listed entries.
Please reply with the value in numeric form only.

NC(=O)C(F)(F)C(F)(F)C(F)(F)C(F)(F)F [Nonafluoropentanamide] = 19.5
Cc1cccc2c1ccc1ccccc12 [1-Methylphenanthrene] = 10.4

query: Please report mean distance moved of exposed larvae for the following compound: C[Si](C)(C)C(F)(F)C(F)(F)C(F)(F)F [(Heptafluoropropyl)trimethylsilane]
result: 24.3
